Target: COPS5 (UniProt Q92905)
Sequence (Q92905 whole entry, looked up, the tested form may be a part): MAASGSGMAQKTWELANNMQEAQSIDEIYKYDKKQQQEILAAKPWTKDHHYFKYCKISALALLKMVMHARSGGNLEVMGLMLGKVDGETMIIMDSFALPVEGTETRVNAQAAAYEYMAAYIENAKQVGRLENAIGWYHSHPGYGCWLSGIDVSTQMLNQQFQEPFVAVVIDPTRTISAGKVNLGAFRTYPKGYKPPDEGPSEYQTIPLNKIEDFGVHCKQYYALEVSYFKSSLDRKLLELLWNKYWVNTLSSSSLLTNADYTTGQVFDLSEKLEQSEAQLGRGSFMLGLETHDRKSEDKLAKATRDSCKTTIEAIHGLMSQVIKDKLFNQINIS
Assay: log2 ratio of Biotin-Ahx-Ub-VS probe labelling (fragment/DMSO); higher = less target engagement (more negative = stronger competition), active = hit call of the paper (q ≤ 0.05, log2 ratio ≤ -1)
Conditions: compound concentration: 200 uM; treatment time: 3 h
Label rule, in plain words: log2 ratio of Biotin-Ahx-Ub-VS probe labelling of 0.07 and up is YES, under 0.07 is NO.

Asked: Hi, just wondering whether CS(=O)(=O)c1ccc(NC(=O)CCl)cc1 shows log2 ratio of Biotin-Ahx-Ub-VS probe labelling of 0.07 or higher.
Given back: NO

Asked: Hi, just wondering whether CC1CN(c2ccc(NC(=O)CCl)cc2)CC(C)O1 (centres undefined) shows log2 ratio of Biotin-Ahx-Ub-VS probe labelling of 0.07 or higher.
Given back: YES

Asked: Hi, just wondering whether CNC(=O)Cn1cc(NC(=O)CCl)cn1 shows log2 ratio of Biotin-Ahx-Ub-VS probe labelling of 0.07 or higher.
Given back: YES

Asked: Hi, just wondering whether O=C(CCl)N1CCC(C(=O)N2CCCCCC2)CC1 shows log2 ratio of Biotin-Ahx-Ub-VS probe labelling of 0.07 or higher.
Given back: NO

Asked: Hi, just wondering whether Cc1ccccc1C1(CNC(=O)CCl)CCOCC1 shows log2 ratio of Biotin-Ahx-Ub-VS probe labelling of 0.07 or higher.
Given back: YES

Asked: Hi, just wondering whether O=C(CCl)NCc1ccc(N2CCOCC2)nc1 shows log2 ratio of Biotin-Ahx-Ub-VS probe labelling of 0.07 or higher.
Given back: YES

Asked: Hi, just wondering whether Cc1cccn2cc(CCNC(=O)CCl)nc12.Cl shows log2 ratio of Biotin-Ahx-Ub-VS probe labelling of 0.07 or higher.
Given back: NO

Asked: Hi, just wondering whether O=C(CCl)Nc1cccc(NC(=O)c2ccccc2)c1 shows log2 ratio of Biotin-Ahx-Ub-VS probe labelling of 0.07 or higher.
Given back: NO

Asked: Hi, just wondering whether O=C(CCl)NCc1cccc(F)c1 shows log2 ratio of Biotin-Ahx-Ub-VS probe labelling of 0.07 or higher.
Given back: YES

Asked: Hi, just wondering whether Cc1ccc(CC(NC(=O)CCl)c2ccccn2)cc1.Cl (centres undefined) shows log2 ratio of Biotin-Ahx-Ub-VS probe labelling of 0.07 or higher.
Given back: NO

Asked: Hi, just wondering whether O=C(CCl)N1CCC(c2noc3cc(F)ccc23)CC1 shows log2 ratio of Biotin-Ahx-Ub-VS probe labelling of 0.07 or higher.
Given back: NO

Asked: Hi, just wondering whether CC(NC(=O)CCl)c1cccc2ccccc12 (centres undefined) shows log2 ratio of Biotin-Ahx-Ub-VS probe labelling of 0.07 or higher.
Given back: YES

Asked: Hi, just wondering whether Cl.O=C(CCl)N1CCn2cncc2C1 shows log2 ratio of Biotin-Ahx-Ub-VS probe labelling of 0.07 or higher.
Given back: NO

Asked: Hi, just wondering whether O=C(CCl)N1CCCC2CCCCC21 (centres undefined) shows log2 ratio of Biotin-Ahx-Ub-VS probe labelling of 0.07 or higher.
Given back: NO
